List of T/C values.
test system: CD2F1 mice, L1210 leukemia sc, survival T/C; assay: NCI In Vivo Anticancer Drug Screen. Data for tumor model L1210 Leukemia (subcutaneous) in CD2F1 (CDF1) mice; settings: endpoint: median survival time; dose: 180.0 mg/kg/injection; schedule: Q01DX Z (sc); vehicle: saline; higher = longer survival
Toxic doses and inconclusive results are not listed.

Reference set, count: 3
1) O=P1(N(CCCl)CCCl)NCCCO1 (centres undefined)    152 % of control
2) O=c1[nH]cc(F)c(=O)[nH]1    108 % of control
3) Nc1cc(=O)[nH][nH]1    100 % of control

Next, consider the following molecule.
**Query** If you can, please state the reported T/C value of "CC(=O)Nc1ccc2nc3ccc(NC(C)=O)cc3[n+](-c3ccccc3)c2c1" .
**Result** 110 % of control

---

test system: CD2F1 mice, L1210 leukemia sc, survival T/C; test: NCI In Vivo Anticancer Drug Screen. Data for tumor model L1210 Leukemia (subcutaneous) in CD2F1 (CDF1) mice; conditions: endpoint: median survival time; dose: 200.0 mg/kg/injection; schedule: Q01DX009 (ip); vehicle: saline with Tween-80
Inconclusive results and toxic doses are left out. How the source made its calls: active means survival T/C of 150% or more; inactive means T/C below 125% in these data.
Your reply should match one of these outcome classes. active, inactive

1) CN(C)/N=N/c1nc[nH]c1C(N)=O    active
2) CC(=O)Oc1ccc[nH]c1=O    inactive
3) CC/C(=C(/CC)c1ccc(O)cc1)c1ccc(O)cc1    inactive
4) O=C(Nc1nncs1)c1cccs1    inactive

**Query** Recorded test outcome, item OC(CBr)C(O)C(O)C(O)CBr (stereo not given)
**Result** inactive

---

system: CD2F1 mice, L1210 leukemia sc, survival T/C; assay: NCI In Vivo Anticancer Drug Screen. Data for tumor model L1210 Leukemia (subcutaneous) in CD2F1 (CDF1) mice; details: endpoint: median survival time; dose: 39.0 mg/kg/injection; schedule: Q01DX Z (sc); vehicle: water; higher = longer survival
Inconclusive results and toxic doses are left out.
Assay endpoint: T/C

Worked examples, 4 compounds total:
1) COc1ccc2c(c1OC)C(=O)O[C@@H]2[C@H]1c2c(cc3c(c2OC)OCO3)CCN1C    100 % of control
2) CCN(CC)c1ccc(/C=C/c2ccnc3ccccc23)cc1    100 % of control
3) O=C(Nc1cccc(C2=NCCN2)c1)c1ccc(-c2ccc(C(=O)Nc3cccc(C4=NCCN4)c3)cc2)cc1    105 % of control
4) N=C(N)Cc1ccc(NC(=O)c2ccc(C(=O)Nc3ccc(CC(=N)N)cc3)cc2)cc1    110 % of control

**Query** For "CC(C)CCNc1ncnc2c1cnn2C" , what is its reported T/C?
**Result** 100 % of control

**Query** Then what about the compound "COCCCNc1ncnc2[nH]ncc12" ?
**Result** 100 % of control

**Query** # iterate: "O=C(Nc1ccc(NC2=NCCN2)cc1)c1cccc(C(=O)Nc2ccc(NC3=NCCN3)cc2)c1"
**Result** 110 % of control

**Query** Queued: "C[n+]1c2ccccc2nc2c(N)cc(N)cc21"
**Result** 111 % of control

**Query** Now try "Nc1cc(C(=O)Nc2ccc(C3=NCCN3)cc2)ccc1C(=O)Nc1ccc(C2=NCCN2)cc1" .
**Result** 211 % of control

**Query** Please give the result for "O=C(Nc1ccc(C2=NCCN2)cc1)c1cccc(C(=O)Nc2ccc(C3=NCCN3)cc2)c1" too.
**Result** 266 % of control

Every entry's value here was drawn from PubChem BioAssay AID258.
